# targetOrTestSystem: Recombinant human Aurora B (amino acids 1-344) (Homo sapiens (Human))
# Sequence (Q96GD4 whole entry, the tested form may be a part): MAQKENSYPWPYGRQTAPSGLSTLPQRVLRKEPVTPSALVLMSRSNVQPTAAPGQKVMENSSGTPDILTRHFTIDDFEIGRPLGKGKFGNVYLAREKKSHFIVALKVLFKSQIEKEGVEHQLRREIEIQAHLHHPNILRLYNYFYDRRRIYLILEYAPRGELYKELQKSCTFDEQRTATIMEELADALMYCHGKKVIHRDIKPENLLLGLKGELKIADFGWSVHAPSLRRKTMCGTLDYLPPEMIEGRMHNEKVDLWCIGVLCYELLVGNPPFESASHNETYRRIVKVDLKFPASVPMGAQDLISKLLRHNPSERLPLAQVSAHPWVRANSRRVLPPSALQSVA
# protocolDescription: Aurora B kinase test (ADP Glo luminescence)
# Format: biochemical
# assayConditions: read-out: IC50-values with regard to AURB
# Protocol: The activity of the Aurora B kinase protein was determined using the ADP Glo® Luminescence Kinase test (Promega; V9103X). Serial Dilution is done in 1:10 steps in 100% DMSO. […] The output file of the reader is a csv file that contains the well number and measured RLU. […] Based on this values the % value for the measurement of each substance concentration was calculated using an Assay Explorer software (Accelrys). […] The IC50 values were calculated from the % ctrl values using Assay Explorer software. […]
quantityKind: pIC50
Interpret pIC50 as the negative base-10 log of the concentration measured in mol/L.

## Input Which measured pIC50 value corresponds to COc1cc(-c2cc(O[C@H](C)[C@H]3CNC(=O)C3)c3cccnc3c2)cc(OC)c1OC [example 2 of WO2013/014060, reference compound] ?
## Output 4.77
